Each recorded value in this set is attributed to the supplement of paper PMC10567573.

# protocolDetails: protein stability index of a GFP-peptide fusion (GPS, HEK-293T) (PSI 1-6); higher = more stable;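 further: 24-mer peptide tiles fused after GFP, lentivirally expressed, FACS-sorted into six equal bins by GFP/DsRed ratio, decoded by Illumina sequencing, PSI is the read-weighted mean bin number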
# testParameters: treatment: MLN4924 1 uM, 8 h; c terminus: a fixed tail appended
A collection of sequences and their measured protein stability index
observationType: protein stability index

entrySequence	measValue
ARNIGFKVNSKKMLGKYNTPVSYR [ACSBG2]	2.55
INQSFTGAERKAALCELLEKETQI [IQUB]	4.01
EYECRRRMLMKRLDVTVQSFGWSD [FAM98B]	2.45
AVGKMGFVVTMLKLIQKKLLDKTC [ZER1]	2.35
RSLSERTVDKCFGRKKYDIDPRNG [SPATS1]	4.73
AQRHRELYLRVELSDVQNPAISIT [HACD3]	2.18
ATKQLDFTRKTLAEKKQELDKLRN [SASS6]	4.43
LNLNYNCISDELLENLCENASTLR [FBXO39]	3.29
DGSLILVSASRDKTLRVWDLKDDG [WSB1]	3.03
TGTSKRYQLCRVQECPPDGRSFRE [ADAMTSL2]	3.09
VPVPPAAAPPPPATPIVPVVPPTP [BRD3]	4.75
FMEKRNQWLVSQLSAASPDTGHDS [TRAF3IP2]	3.21
AEHWTKEHCGAVCFVKDNPQKSYF [WAS]	2.98
